System: SF-295 CNS
Protocol: NCI-60 one-dose screen, 48 h (100 = growth as untreated, 0 = no growth, -100 = all killed)
Measurement Conditions: 10 µM unless noted
Procedure: Cells are grown in 96 well plates and exposed to the test compound for 48 hours. Compounds are tested at a single concentration, which is 10^-5 M for most compounds. The reported endpoint is percent growth (GI% or GIPRCNT), where numbers from 0 - 100% represent growth inhibition, and numbers from -100% - 0 represent cell death. For example, a value of 40 represents 60% growth inhibition. A value of 0 means no net growth occurred over the course of the experiment. […]
This is part of a sample that, as a whole, favours compounds with a hit. Of some 83,000 tested, about 20% had one in any assay.
Measure: growth (%)
Answer format: numeric, % implied, no suffix.

Recorded result, C/C=C/C/C=C/[C@H](C)C[C@H](O)[C@@H]1C[C@@H]2O[C@H]2/C=C/[C@@H]2OC(C)(C)O[C@H]2/C=C/C[C@H](C)CC(=O)O1 , growth: 28.8

Recorded result, CCC(C)(C)c1ccc(OCCCCCCN2CCN(c3ccc(C)c(Cl)c3)CC2)cc1 , growth: 85.7

Recorded result, CCCCCCCCCCCCCCCCC(=O)O.CCCCCCCCCCCCCCCCCC(=O)O.CCCCCCCCCCCCCCCCCC(=O)O.CCCCCCCCCCCCCCCCCC(=O)O.CCCCCCCCCCCCCCCCCC(=O)O.CO[CH-]OC12COC1CC(O)C1(C)C(O)C(OC(C)O)C3=C(C)C(OC(=O)C(O)C([NH-])c4ccccc4)CC(O)(C(OC(=O)c4ccccc4)C21)C3(C)C.[Cu+].[Zn].[Zn].[Zn].[Zn].[Zn] (stereo not drawn) , growth: 16.5

Recorded result, CCOc1ccc(Br)cc1/C=C(\C#N)c1ccc([N+](=O)[O-])cc1 , growth: 76.5

Recorded result, Cc1cc(CSc2ccc(Cl)cc2)ccc1N , growth: 101

Recorded result, COCn1c(C(=O)OC)cc2oc(/C=C3/SC(=S)N(N)C3=O)cc21 , growth: 82.3

Recorded result, NC(=O)CC(NC(=O)COc1ccc(Cl)cc1Cl)C(=O)O (stereo not drawn) , growth: 100

Recorded result, O=C(CCl)c1ccc2c(c1)CCCC2 , growth: 70.2

Recorded result, COC1NC(Cl)=C(C#N)C(C#N)(C#N)C1(C)C (stereo not drawn) , growth: 115

Recorded result, Cc1cc2c(-c3nc4ccccc4[nH]3)c(O)c(O)cc2c(O)c1-c1c(C)cc2c(-c3nc4ccccc4[nH]3)c(O)c(O)cc2c1O , growth: -17.5

Recorded result, CCCCCc1ccnc(CC(=O)c2ccc(OC)cc2)c1 , growth: 97.4

Recorded result, COc1ccc(-c2nc(N)n(C(=S)Nc3ccccc3)n2)cc1 , growth: 91.2

Recorded result, Cc1ccccc1-n1c(C)nc2cc(NC(=O)c3ccc(Cl)cc3)ccc2c1=O , growth: 59.7

Recorded result, O=C(O)/C(Br)=C/c1c[nH]c2ccc(Br)cc12 , growth: 102

Recorded result, c1ccc(Nc2ccccn2)cc1 , growth: 102

Recorded result, COc1cccc(CNC(=O)c2cccc(C3CC(=O)c4c(cc(OC)c(OC)c4OC)O3)c2)c1 (stereo not drawn) , growth: 84.1

Recorded result, CCOC(=O)c1sc(NS(=O)(=O)c2ccccc2)nc1C , growth: 133

Recorded result, N=C(N)N=Nc1ccc(NN=C(N)N)cc1 , growth: 101

Recorded result, C=C(NC(=O)[C@H](C(C)C)N(C)c1cccc2[nH]ccc12)C(=O)OC , growth: 101

Recorded result, O=C(NC1CCN(Cc2ccccc2)CC1)c1cc(-c2cccnc2)nc2ccc(Cl)cc12 , growth: 67.6

Recorded result, CCCCCSc1ccc2nc(NC(=O)OCC)sc2c1 , growth: 6.93

Recorded result, Cc1nc2c(nnn2-c2ccccc2)c2nc(-c3ccc(Cl)cc3)oc(=O)c12 , growth: 102

Recorded result, Nc1ncn([C@@H]2O[C@H](CO)[C@@H](O)C2(F)F)c(=O)n1 , growth: 77.9

Recorded result, O=Nc1c(-c2c(O)[nH]c3cc(Br)ccc23)[nH]c2ccccc12 , growth: -26.2

Recorded result, CC1=C(C)C[C@]2(C(=O)O[C@H]3CCCC[C@@H]32)[S@](=O)C1 , growth: 106

Recorded result, N#Cc1c2cccnc2c2nnc3cc(Cl)c(Cl)cc3n12 , growth: 80.8

Recorded result, CCC(CCCN1C(=O)c2ccccc2C1=O)Nc1cc(OC)cc2cccnc12 (stereo not drawn) , growth: 111

Recorded result, O=C(NCCNCCO)c1cc([N+](=O)[O-])cc([N+](=O)[O-])c1O , growth: 101

Recorded result, CCS(=O)(=O)N[C@@H]1O[C@H](COC(C)=O)C(OC(C)=O)[C@H](OC(C)=O)C1OC(C)=O (stereo partly drawn) , growth: 111

Recorded result, O=c1c2c(c3ccccc3n1-c1ccccc1)NC(=S)NC2c1ccc(Cl)cc1 (stereo not drawn) , growth: 25.9

Recorded result, C=CCSc1nnc(COc2ccc3c(C)c(Cc4ccccc4)c(=O)oc3c2C)o1 , growth: 99.9

Recorded result, CCOC(=O)C1=C(c2ccccc2)NC(=O)NC1CN1C(=O)c2ccccc2C1=O (stereo not drawn) , growth: 115

Recorded result, Cc1ccc(S(=O)(=O)N/N=C2\CC3CCC2C3)cc1 (stereo not drawn) , growth: 86.6

Recorded result, O=C1/C(=C/c2ccc(Cl)cc2)CCC/C1=C\c1ccc(Cl)cc1 , growth: 94.5

Recorded result, COc1cc2oc(-c3ccc(NC(=O)c4ccccc4)cc3)cc(=O)c2c(OC)c1OC , growth: 77.4

Recorded result, COc1cc(-c2nc(/C=C3/C(=O)Nc4ccccc43)c3ccccn23)cc(OC)c1OC , growth: 92

Recorded result, CC1=C[C@@H]2c3c(c(O)c(O)c4oc5cc(O)cc(O)c5c(=O)c34)[C@@H](c3cc(O)c(O)c4oc5cc(O)cc(O)c5c(=O)c34)[C@@H]2C(C)(C)C1 , growth: -26.7

Recorded result, [2H]c1nc(=Nc2cc(NC(=O)C=C)c(N(C)CCN(C)C)cc2OC)[nH]c(-c2cn(C([2H])([2H])[2H])c3ccccc23)c1[2H] , growth: 85.4

* * *

Tested on: 786-0 renal
Protocol: NCI-60 one-dose screen, 48 h
Measurement Conditions: 10 µM unless noted
This is part of a sample that, as a whole, favours compounds with a hit. Of some 83,000 tested, about 20% had one in any assay. Calls of active or inactive are those of the source. How the source made its calls: active means growth percent below 10; inactive means the rest.
Please reply with one of these outcomes: 1.0 (active), 0.0 (inactive)

Ask: Please share the test call associated with CC(C)(C)c1ccc([I+]c2ccc(C(C)(C)C)cc2)cc1 .
Reply: 0.0

Ask: Please share the test call associated with Cc1ccccc1-n1c(C)nc2cc(NC(=O)c3ccc(Cl)cc3)ccc2c1=O .
Reply: 0.0

Ask: Please share the test call associated with C=C[C@]1(C)C=C2C(=O)[C@@]3(O)OC[C@@]4(CCCC(C)(C)C43O)C2(O)C(O)C1 (stereo partly drawn) .
Reply: 0.0

Ask: Please share the test call associated with Cc1c(Cc2ccccc2)c(=O)oc2c(C)c(OCC(=O)n3nc(C#N)cc3N)ccc12 .
Reply: 0.0

Ask: Please share the test call associated with CCOC(=O)c1c(C)oc2ncnc(Nc3ccc(NC(=O)Nc4cccc(Cl)c4)cc3)c12 .
Reply: 0.0

Ask: Please share the test call associated with NNC(=O)CNc1ccc2ccccc2c1 .
Reply: 0.0

Ask: Please share the test call associated with CCCCCCCCC(=O)Nc1ccc(O)cc1 .
Reply: 0.0

Ask: Please share the test call associated with C=CC1CN2CCC1CC2C(O)c1ccnc2ccc(OC)cc12 (stereo not drawn) .
Reply: 0.0

Ask: Please share the test call associated with Cc1nc(NC(=S)Nc2ccc(F)cc2)sc1C(=O)NNC(=S)Nc1ccc(F)cc1 .
Reply: 0.0

Ask: Please share the test call associated with Br/C(=N\Nc1nn[nH]n1)c1ccccc1 .
Reply: 0.0

Ask: Please share the test call associated with COc1ccc(Cn2cc3c(c2-c2ccccc2)CCc2cnoc2-3)cc1OC .
Reply: 0.0

Ask: Please share the test call associated with O=C1N/C(=N\c2nnc(-c3ccc(O)cc3)s2)S/C1=C\c1ccccc1O .
Reply: 0.0

Ask: Please share the test call associated with CC(=O)Nc1nc(C)c(C(=O)NN)s1 .
Reply: 0.0

Ask: Please share the test call associated with [N-]=[N+]=Nc1ncc(-c2ccc(C(F)(F)F)cc2)c(NC2CCCCCC2)n1 .
Reply: 0.0

Ask: Please share the test call associated with O=C1C=C(OCC=C(C(F)(F)F)C(F)(F)F)c2ccccc2C1=O .
Reply: 1.0

Ask: Please share the test call associated with C[C@H]1C[C@@H](n2cnc3c(N)nccc32)[C@H](O)[C@@H]1O .
Reply: 0.0

Ask: Please share the test call associated with CCOC1=C(Cl)C(=O)C(OCC)=C(Cl)C1=O .
Reply: 0.0

Ask: Please share the test call associated with COc1cc(CNC(=O)CCCC/C=C/C(C)C)ccc1OCc1nnc(Nc2ccccc2F)o1 .
Reply: 0.0

Ask: Please share the test call associated with N=C(N)N=Nc1ccc(NN=C(N)N)cc1 .
Reply: 0.0

Ask: Please share the test call associated with N=C(N)c1ccc(-c2ccc(-c3cc(Cl)cc(Cl)c3)s2)cc1 .
Reply: 1.0

Ask: Please share the test call associated with C/C(=N\Nc1ccc(Cl)cn1)c1ccccn1 .
Reply: 1.0

Ask: Please share the test call associated with OC(c1ccccc1)(c1ccccc1)C(F)(F)F .
Reply: 0.0

Ask: Please share the test call associated with CC1CCCCC[N+]12CCCC2 (stereo not drawn) .
Reply: 0.0
